Hey, just so you know, these numbers are from patent US20030148958A1.

target: CRF1R; experiment: cell-based or functional assay
Ends that are not written are not given here.
parameter-measured: CRF1R EC50 (nM)
Respond with the bare value in nM.

Incoming: Identify measured CRF1R EC50 corresponding to ZGPPISIDLPLELLRKMIEIEKQEKEKQQAANNALLLATI (C-terminal amide) [SEQ ID NO 234]
Outgoing: 434

Incoming: Quick one: give measured CRF1R EC50 for PSLSIDLPLLLLRTLLELEKTQSQRERAEQNAIIFASV-NH2 [SEQ ID NO 348]
Outgoing: 630

Incoming: Hello, please tell me recorded CRF1R EC50 for this one: ZGPPISIDLPLHLLRKMIEIEKQEKEKQQATTNARLLDRV (C-terminal amide) [SEQ ID NO 239]
Outgoing: 587

Incoming: Answer with reported CRF1R EC50 of NDDPPISIDLPLFLLRNMIEMARIENEREQAGLNAKYLAEV-NH2 [SEQ ID NO 257]
Outgoing: 744

Incoming: Return the recorded CRF1R EC50 value; entry: ZGPPISIDLPHQLLRKMIEIEKQEKEKQQAANNRLLLDTI (C-terminal amide) [SEQ ID NO 212]
Outgoing: 445

Incoming: Specify CRF1R EC50 for ZGPPISIDLPFQLLRKVIEIEKQEKEKQQAANNAQLLAQI (not fully specified; C-terminal amide) [SEQ ID NO 276] and stop.
Outgoing: 1000

Incoming: Supply recorded CRF1R EC50 for ZGPPISIDLPTALLRKMIEIEKQEKEKQQAANNRLLLDTI (C-terminal amide) [SEQ ID NO 301] here.
Outgoing: 690

Incoming: Please list CRF1R EC50 recorded for the binder PSLSIDLPLILLRTLLELEKTQSQRERAEQNARIFARV-NH2 [SEQ ID NO 332]
Outgoing: 1000

Incoming: Name the recorded CRF1R EC50 of the item ZGPPISIDLPFQLLRKVIEIEKQEKEKQQATTNARLLDRV (C-terminal amide) [SEQ ID NO 351] in your answer.
Outgoing: 1000

Incoming: Fill in CRF1R EC50 for record ZGPPISIDLPFQLLRKAIEIEKQEKEKQQAANNALLLATI (C-terminal amide) [SEQ ID NO 364]
Outgoing: 1000

Incoming: Look up and state reported CRF1R EC50 for ZGPPISIDLPFFLLRKVIEIEKQEKEKQQAANNALLLATI (C-terminal amide) [SEQ ID NO 317]
Outgoing: 188

Incoming: Given the binder ZGPPISIDLPFQLLRKAIEIEKQEKEKQQAANNALLLDTI (C-terminal amide) [SEQ ID NO 365] , write its reported CRF1R EC50.
Outgoing: 1000
